Answer each item with its documented GI50.
Test system: ACHN
Experiment: NCI tumour cell line growth inhibition, 48 h
Activity calls are given as the source filed them. Cut-off read from the data, not from the text of the source: active = GI50 up to about 1.1 µM and inactive = higher.

Recorded results for 5 compounds are shown here.
1. CCCCCCCCCCC(=O)CC(=O)c1c(O)cccc1O : 30 µM (inactive)
2. c1c[nH]c(CN2CCOCC2)n1 : > 100 µM (inactive)
3. CCOC(=O)C12C(C(=O)OC)=C(C)N(NC(=O)Nc3ccccc3)C1(N)N(NC(=O)Nc1ccccc1)C(C)=C2C(=O)OC (stereo unspecified) : 34.1 µM (inactive)
4. O=C1CS(=O)(=O)C(c2cccc(Oc3ccccc3)c2)N1C1CC1 (stereo unspecified) : 31.2 µM (inactive)
5. COc1ccc2c(c1)c1c(n2CCN2CCCCC2)-c2cccc(OC)c2CC1 : 17.5 µM (inactive)

Give GI50 for all compounds that follow.
1. Nc1nc(-c2ccccc2)c(CC(=O)O)s1
2. CC(=O)O[C@H]1CCC2[C@@H]3CCC4Nc5oncc5C[C@]4(C)C3CC[C@@]21C (stereo partly specified)
3. O=c1cc(N2CCN(c3cc(=O)n4ccccc4n3)CC2)oc2ccccc12
4. NS(=O)(=O)c1ccc(NC(=O)Nc2ccccc2F)cc1
5. Cc1nnc(CC#N)n1NC(=O)CC#N
6. O=C(CSCC(=O)N/N=C\c1ccc(O)c(O)c1O)N/N=C\c1ccc(O)c(O)c1O

Ans.
1. > 100 µM (inactive)
2. > 10 µM (inactive)
3. > 100 µM (inactive)
4. > 100 µM (inactive)
5. > 100 µM (inactive)
6. 5.87 µM (inactive)

---

Tested on: T47D
Assay: NCI tumour cell line growth inhibition, 48 h
Active and inactive are the calls of the source. Rule as the data show it: active = GI50 up to about 1.1 µM and inactive = higher.
measurement.kind: GI50

Recorded results for 3 compounds are shown here.
1) C=C1c2nc3ccccc3n2C=C(c2ccc(Cl)cc2)N1c1ccc(OCCN2CCOCC2)cc1 : 21.4 µM (inactive)
2) CN(C)C(=O)/N=C1\SC(=N\c2ccccc2)/C(=N/c2ccccc2)N1c1ccc([N+](=O)[O-])cc1 : > 100 µM (inactive)
3) CNc1cc([N+](=O)[O-])ccc1C(=O)N1CCC[C@H]1CO : > 100 µM (inactive)

Give GI50 for all compounds that follow.
1. C[N+](C)(C)C1(C(=O)[O-])CC1
2. COc1cc2c(cc1OC)C(=O)/C(=C/c1ccccc1)CC2
3. Cc1nc2ccccc2n1CCc1nc2ccccc2s1
4. Cc1ccc(-n2cc(-c3ccc(Cl)cc3)c3c(NNC(=S)NCc4ccccc4)ncnc32)cc1
5. C(/C=N/N=C1NCCCCN1)=N\N=C1NCCCCN1
6. O=C1Cc2c(-c3ccccc3)cc(-c3ccc(Cl)cc3)nc2-c2ccccc2N1
7. CC1=NN(c2ccccc2)C(=O)/C1=C\c1c(C)[nH]n(-c2ccccc2)c1=O

Ans.
["72.1 µM (inactive)", "26.1 µM (inactive)", "7.21 µM (inactive)", "24.8 µM (inactive)", "> 100 µM (inactive)", "3.23 µM (inactive)", "36.1 µM (inactive)"]

---

Test system: 786-0
Assay: NCI tumour cell line growth inhibition, 48 h
Activity calls are given as the source filed them. Cut-off read from the data, not from the text of the source: active = GI50 up to about 1.1 µM and inactive = higher.
measurement.kind: GI50

1) COC(=O)C(Cc1c[nH]c2ccccc12)NC1=Nc2ccncc2S(=O)(=O)N1c1cccc(OC(C)C)c1 (stereo not given) : 34.2 µM (inactive)
2) N#C/C(C(=O)NCc1ccccc1)=C(/N)N1CCCC1 : > 100 µM (inactive)
3) CC/C(Cl)=N\OC(=O)Nc1ccc(F)c(Cl)c1 : 7.1 µM (inactive)
4) C/C(=N\N(C)C)C(CN(C)C)C(c1ccccc1)c1c(O)c2ccccc2oc1=O (stereo not given) : > 100 µM (inactive)
5) CC(C)(C)[Si](C)(C)OCC1OC(n2ccc(=O)[nH]c2=O)C(O[Si](C)(C)C(C)(C)C)[C@]12O[C@@H]2CO (stereo not given in full) : 18.2 µM (inactive)

Give GI50 for all compounds that follow.
1. [O-][n+]1onc2c3nn(-c4ccccc4)nc3ccc21
2. COc1ccc2c(c1)[n+]([O-])c(C(N)=O)c(N)[n+]2[O-]
3. CN(C)/C=N/S(=O)(=O)c1nn2c(C=O)c(-c3ccc(Cl)cc3)nc2s1
4. CCCCn1c2ccccc2c2ccc3c(c21)C(=O)C=CC3=O

Ans.
> 100 µM (inactive)
93.1 µM (inactive)
1.25 µM (inactive)
> 100 µM (inactive)

Qu. Find the measured GI50: item "O=C1OC(c2ccccc2)=N/C1=C\c1cccc2ccccc12" , target or system 786-0.
Ans. > 100 µM (inactive)

Source: ChEMBL document CHEMBL1201862
